Every entry's value here was drawn from patent US20050032873A1.

ASSAYED TARGET: cloned human 5-HT1A receptors (Homo sapiens)
Sequence (P08908 whole entry): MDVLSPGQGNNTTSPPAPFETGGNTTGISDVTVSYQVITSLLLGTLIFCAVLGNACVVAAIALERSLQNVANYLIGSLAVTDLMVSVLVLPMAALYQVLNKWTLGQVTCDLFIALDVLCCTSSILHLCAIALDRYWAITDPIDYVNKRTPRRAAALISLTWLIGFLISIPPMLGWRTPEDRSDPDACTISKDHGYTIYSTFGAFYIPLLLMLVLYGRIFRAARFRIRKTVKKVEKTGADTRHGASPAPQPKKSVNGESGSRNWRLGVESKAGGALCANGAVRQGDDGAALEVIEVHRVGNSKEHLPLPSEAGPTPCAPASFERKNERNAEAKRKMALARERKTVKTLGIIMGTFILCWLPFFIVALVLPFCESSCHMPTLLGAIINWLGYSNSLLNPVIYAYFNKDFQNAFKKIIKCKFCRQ
PROCEDURE SUMMARY: 35S-GTPγS binding assay, 5-HT1A function
TEST PARAMETERS: agonist potency
VALUE TYPE: EC50 (nM)
Give just the numeric value; nM need not be written.

Answered cases to consult:
[
  {
    "COMPOUND": "NC(=O)c1ccc(F)c2c1CC(NCCCc1c[nH]c3ccc(F)cc13)CO2 (single isomer, unassigned; (+)) [Compound 1a]",
    "UNITS SYMBOL": "nM",
    "EC50": 993
  },
  {
    "COMPOUND": "CCN(C(C)CCc1c[nH]c2ccc(F)cc12)C1COc2c(F)ccc(C(N)=O)c2C1 (single isomer, unassigned; (+)) [Compound 16b]",
    "UNITS SYMBOL": "nM",
    "EC50": 807
  },
  {
    "COMPOUND": "COc1cccc2c1CC(N(CCCc1c[nH]c3ccc(F)cc13)CC1CCC1)CO2 (stereo not shown)",
    "UNITS SYMBOL": "nM",
    "EC50": 763
  }
]

QUERY: So what does the record say about EC50 for CCN(CCCCc1c[nH]c2ccc(F)cc12)C1COc2c(C(N)=O)ccc(F)c2C1 (stereo not shown) ?
RESULT: 1290

* * *

ASSAYED TARGET: serotonin transporter (Rattus norvegicus, UniProt P31652)
Construct: displace ^3H-paroxetine from male rat cortical membranes; from tissue; host or cells: male rat cortical membranes
Sequence (P31652 whole entry): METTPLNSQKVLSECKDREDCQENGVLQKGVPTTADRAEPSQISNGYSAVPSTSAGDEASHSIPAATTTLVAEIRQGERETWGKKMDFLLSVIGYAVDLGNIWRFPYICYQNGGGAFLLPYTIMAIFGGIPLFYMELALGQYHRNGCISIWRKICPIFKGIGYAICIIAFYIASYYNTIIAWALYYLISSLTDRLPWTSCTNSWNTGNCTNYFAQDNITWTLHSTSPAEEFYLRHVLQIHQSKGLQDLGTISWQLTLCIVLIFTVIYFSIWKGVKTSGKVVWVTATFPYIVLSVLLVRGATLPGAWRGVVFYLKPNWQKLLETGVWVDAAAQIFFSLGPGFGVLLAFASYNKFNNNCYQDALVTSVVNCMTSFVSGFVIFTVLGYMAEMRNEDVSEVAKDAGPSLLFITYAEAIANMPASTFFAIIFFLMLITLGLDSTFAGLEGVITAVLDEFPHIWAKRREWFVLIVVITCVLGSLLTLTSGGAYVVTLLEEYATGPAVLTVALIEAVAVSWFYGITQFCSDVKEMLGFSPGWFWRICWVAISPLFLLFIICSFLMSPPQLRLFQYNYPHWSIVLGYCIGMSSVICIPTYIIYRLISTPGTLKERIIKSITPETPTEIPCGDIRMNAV
PROCEDURE SUMMARY: 5-HT transporter affinity: displacement of 3H-paroxetine from male rat cortical membranes
Type: binding
TEST PARAMETERS: displacement of 3H-paroxetine; male rat cortical membranes; read-out: 5-HT Transporter Affinity Ki
VALUE TYPE: pKi
Please note pKi is a logarithmic value: minus log10 of concentration in mol/L. Answer with that number alone.

QUERY: Fill blank: measured pKi of the compound NC(=O)c1ccc(F)c2c1CC(N(CCCc1c[nH]c3ccc(Cl)cc13)C1CCC1)CO2 (stereo not shown) is ____.
RESULT: 7.12

QUERY: Moving on to the next compound: NC(=O)c1ccc(F)c2c1C[C@@H](N(CCCCc1c[nH]c3ccc(F)cc13)C1CCC1)CO2 [Compound 83a]
RESULT: 7.88

QUERY: Would you mind doing CCN(CCCCc1c[nH]c2ccc(F)cc12)C1COc2c(C(N)=O)ccc(F)c2C1 (stereo not shown) as well?
RESULT: 8.00

QUERY: Further, for CC(C1CC1)N(CCCc1c[nH]c2ccc(F)cc12)C1COc2c(F)ccc(C(N)=O)c2C1 (stereo not shown) ?
RESULT: 7.72

* * *

Counter-ions that a name gives are not always drawn.
VALUE TYPE: melting point

QUERY: Name the reported melting point value associated with the molecule CCN(C(C)CCc1c[nH]c2ccc(F)cc12)C1COc2c(F)ccc(C(N)=O)c2C1 (single isomer, unassigned; (+)) (as salt: hydrochloride) [Compound 16b]
RESULT: 135 °C (dec.)

QUERY: Also need NC(=O)c1ccc(F)c2c1CC(N(CCCCc1c[nH]c3ccc(F)cc13)C1CCC1)CO2 (stereo not shown) (as salt: hydrochloride) , thanks.
RESULT: 122 °C (dec.)

QUERY: What do we get for NC(=O)c1ccc(F)c2c1CC(NCCCCc1c[nH]c3ccc(F)cc13)CO2 (stereo not shown) (as salt: hydrochloride) ?
RESULT: 52 °C (dec.)

QUERY: Let us now turn to NC(=O)c1ccc(F)c2c1OCC(N(CCCc1c[nH]c3c(F)cc(F)cc13)CC1CC1)C2 (stereo not shown) (as salt: hydrochloride)
RESULT: 124 °C (dec.)

QUERY: Entry to check: O=C(NC1CCC1)c1ccc(F)c2c1CC(N(CCCc1c[nH]c3ccc(F)cc13)C1CCC1)CO2 (stereo not shown) (as salt: hydrochloride)
RESULT: 135 °C (dec.)

QUERY: For CNC(=O)c1ccc(F)c2c1CC(N(CCc1c[nH]c3ccc(F)cc13)C1CCC1)CO2 (stereo not shown) (as salt: hydrochloride) then?
RESULT: 131 °C (dec.)

QUERY: Another: COC(=O)c1ccc(F)c2c1CC(NCCCc1c[nH]c3ccc(F)cc13)CO2 (stereo not shown) (as salt: hydrochloride)
RESULT: 219 °C (dec.)
